Molecular target: EPHB2 (UniProt P29323)
Sequence (P29323 whole entry, looked up): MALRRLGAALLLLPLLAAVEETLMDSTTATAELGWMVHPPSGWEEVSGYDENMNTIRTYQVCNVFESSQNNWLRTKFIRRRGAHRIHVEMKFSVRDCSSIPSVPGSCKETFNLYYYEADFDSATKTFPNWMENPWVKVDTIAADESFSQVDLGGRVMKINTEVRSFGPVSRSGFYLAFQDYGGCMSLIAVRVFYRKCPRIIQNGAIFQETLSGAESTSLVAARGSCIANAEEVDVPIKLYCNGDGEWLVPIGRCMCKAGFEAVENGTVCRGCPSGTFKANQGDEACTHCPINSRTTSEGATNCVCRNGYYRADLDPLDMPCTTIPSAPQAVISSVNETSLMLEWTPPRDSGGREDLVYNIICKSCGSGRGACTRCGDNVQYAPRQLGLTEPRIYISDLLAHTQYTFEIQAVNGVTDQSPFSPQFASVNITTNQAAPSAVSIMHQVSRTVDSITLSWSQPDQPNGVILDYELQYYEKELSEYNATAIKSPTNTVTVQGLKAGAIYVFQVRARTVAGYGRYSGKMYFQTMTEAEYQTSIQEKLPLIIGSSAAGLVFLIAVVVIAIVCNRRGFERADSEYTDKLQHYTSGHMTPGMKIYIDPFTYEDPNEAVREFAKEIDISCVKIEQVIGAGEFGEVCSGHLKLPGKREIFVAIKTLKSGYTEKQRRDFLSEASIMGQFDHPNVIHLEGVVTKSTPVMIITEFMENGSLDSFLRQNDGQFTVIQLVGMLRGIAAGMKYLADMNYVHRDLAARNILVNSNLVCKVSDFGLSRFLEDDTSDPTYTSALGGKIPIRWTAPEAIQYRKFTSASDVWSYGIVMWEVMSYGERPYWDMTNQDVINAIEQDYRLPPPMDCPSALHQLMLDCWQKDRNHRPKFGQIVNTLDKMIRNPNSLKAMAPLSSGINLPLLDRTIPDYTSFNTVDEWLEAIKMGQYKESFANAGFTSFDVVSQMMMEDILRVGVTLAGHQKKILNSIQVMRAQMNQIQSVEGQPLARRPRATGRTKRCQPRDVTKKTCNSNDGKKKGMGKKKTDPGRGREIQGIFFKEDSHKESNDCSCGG
Experiment: phosphorylation enrichment, bacterial display (enrichment ratio); higher = better substrate or ligand; peptides without Tyr show the background;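 also: 11-residue human phosphosite peptides and single-mutation variants displayed on the E. coli surface, counted by deep sequencing, each peptide's frequency after selection divided by its frequency in the unselected input library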;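 also: frequency after pTyr selection over input frequency; kinase dosed for 20-30% of maximal phosphorylation in three min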
What phosphorylation enrichment was measured for each of the following?
Numbers only.

// each sequence listed below needs its phosphorylation enrichment
1. PPSLSYLSFEG [EXOSC3_Y143_A139P]
2. VDEERYDIEGK [TNNI3_Y112_A116G]

// result
0.448
0.74

====

Provide the reported phosphorylation enrichment of each item.
System: Fer (mouse)
Test: phosphorylation enrichment, bacterial display (enrichment ratio); higher = better substrate or ligand; peptides without Tyr show the background
Numbers only.

Example sequences with recorded phosphorylation enrichment:
{"macromolecule sequence": "STEEQYRICQV [EFHC1_Y115_R118C]", "tested on": "Fer (mouse)", "phosphorylation enrichment": 0.598}
{"macromolecule sequence": "PKKKQYTSIHH [APP_Y728_L723P]", "tested on": "Fer (mouse)", "phosphorylation enrichment": 0.595}

Pending sequence:
// query Form entry - test system: Fer (mouse); read-out: phosphorylation enrichment; sequence: CTTIHCNYMCN [TP53_Y234_Y234C]
// result 0.599

Values compiled from the supplement of paper PMC10065799.
